Hello, the source for this data is patent US5108930A, in case you need it.

procedure text: elimination half-life of aminoguanidine in plasma of patients (HPLC assay) for measurement of kidney function
Format: in vivo, human
assay setup: human, plasma, po, 300 mg, patient 8, GFR 12.1; 300 mg oral aminoguanidine hydrochloride; plasma at 10, 14, 18 hours; read-out: AG T1/2 (converted)

compound: N=C(N)NN [aminoguanidine]
half-life: 1490 min

====

procedure text: elimination half-life of aminoguanidine in plasma of patients (HPLC assay) for measurement of kidney function
Format: in vivo, human
assay setup: human, plasma, po, 300 mg, patient 7, GFR 26.7; 300 mg oral aminoguanidine hydrochloride; plasma at 10, 14, 18 hours; read-out: AG T1/2 (converted)

molecule: N=C(N)NN [aminoguanidine]
half-life (h): 14.8

====

procedure text: elimination half-life of aminoguanidine in plasma of patients (HPLC assay) for measurement of kidney function
Format: in vivo, human
assay setup: human, plasma, po, 300 mg, patient 16, GFR 82.2; 300 mg oral aminoguanidine hydrochloride; plasma at 10, 14, 18 hours; read-out: AG T1/2 (converted)

line notation: N=C(N)NN
measure unit: h
half-life: 6.03

====

procedure text: elimination half-life of aminoguanidine in plasma of patients (HPLC assay) for measurement of kidney function
Format: in vivo, human
assay setup: human, plasma, po, 300 mg, patient 19, GFR 131.1; 300 mg oral aminoguanidine hydrochloride; plasma at 10, 14, 18 hours; read-out: AG T1/2 (converted)
property name: half-life

line notation: N=C(N)NN
measured value: 6.46 h

====

procedure text: elimination half-life of aminoguanidine in plasma of patients (HPLC assay) for measurement of kidney function
Assay type: in vivo, human
assay setup: human, plasma, po, 300 mg, patient 3, GFR 116.3; 300 mg oral aminoguanidine hydrochloride; plasma at 10, 14, 18 hours; read-out: AG T1/2 (converted)
property name: half-life (h)

line notation: N=C(N)NN
measured value: 3.83

====

procedure text: elimination half-life of aminoguanidine in plasma of patients (HPLC assay) for measurement of kidney function
Assay type: in vivo, human
assay setup: human, plasma, po, 300 mg, patient 4, GFR 44.1; 300 mg oral aminoguanidine hydrochloride; plasma at 10, 14, 18 hours; read-out: AG T1/2 (converted)

line notation: N=C(N)NN
half-life (h): 21.8

====

procedure text: elimination half-life of aminoguanidine in plasma of patients (HPLC assay) for measurement of kidney function
Format: in vivo, human
assay setup: human, plasma, po, 300 mg, patient 2, GFR 52.4; 300 mg oral aminoguanidine hydrochloride; plasma at 10, 14, 18 hours; read-out: AG T1/2 (converted)

line notation: N=C(N)NN
measure unit: h
half-life: 14.2

====

procedure text: elimination half-life of aminoguanidine in plasma of patients (HPLC assay) for measurement of kidney function
Type: in vivo, human
assay setup: human, plasma, po, 300 mg, patient 6, GFR 80.5; 300 mg oral aminoguanidine hydrochloride; plasma at 10, 14, 18 hours; read-out: AG T1/2 (converted)
Method: A) A single 300 mg dose of aminoguanidine hydrochloride is administered to the patient. Administration may be either by a capsule or tablet taken orally, or by a liquid syrup, elixir or the like. […] D) Thereafter, the elimination half-life (T1/2) may be determined. Particularly, the data may be interpreted and determined by reference to the relationship wherein the slope of the logarithmic decline of plasma concentration over time is identified as the elimination rate (Kelim). […]

molecule: N=C(N)NN [aminoguanidine]
half-life: 6.78 h
